Experiment: Quantitative high throughput screen for delayed death inhibitors of the malarial parasite plastid, 96 hour incubation (AID 488745); also: nearly all actives have a fitted effect of over 70% in size
Conditions: Plasmodium falciparum growth; series mostly up to 28.7 µM
Records with an inconclusive call do not appear. Activity calls are given as the source filed them. Calls follow the shape of the dose curve; as a rule, active = well fitted inhibition curve with a large enough effect; inconclusive = small, poorly fitted or top-dose-only effect, or effect the other way; inactive = no such curve, though single readings can be large or run the other way.
API: response.call in True = active, False = inactive

For orientation, consider the following solved cases.
- Cc1nc2ccccn2c(=O)c1CCN1CCC(C(=O)c2ccc(F)cc2)CC1: False
- Cc1nnc(SCC2=C(C(=O)O)N3C(=O)[C@@H](NC(=O)Cn4cnnn4)[C@H]3SC2)s1: False
- CSc1ccc(C(=O)c2[nH]c(=O)[nH]c2C)cc1: False

input: For this compound, state the assay outcome: `O=C(O)CCCCCCCC(=O)O`
output: False

input: For this compound, state the assay outcome: `CCN1CCc2nc(N)oc2CC1`
output: False

input: For this compound, state the assay outcome: `COc1cc(Cc2cnc(N)nc2N)cc(OC)c1OC`
output: False

input: For this compound, state the assay outcome: `NC(N)=NC(=O)Cc1c(Cl)cccc1Cl`
output: True

input: For this compound, state the assay outcome: `CN(C)C(=O)Oc1ccc[n+](C)c1`
output: False

input: For this compound, state the assay outcome: `O=C(CCCN1CCC(O)(c2cccc(C(F)(F)F)c2)CC1)c1ccc(F)cc1`
output: True

input: For this compound, state the assay outcome: CC(=O)OC(C)C[N+](C)(C)C (configuration not stated)
output: False

input: For this compound, state the assay outcome: `C[C@H](CS)C(=O)N1CCC[C@H]1C(=O)O`
output: False

input: For this compound, state the assay outcome: `CCN1CCC[C@H]1CNC(=O)c1c(O)c(Cl)cc(Cl)c1OC`
output: False

Source: PubChem BioAssay (NCATS)
